# key: entry, value: signal/noise ratio
- Study System: T1, recombinant Ovr110-hFc encoded by Ovr110 Construct 2 (human)
- T1 construct: Captured on plates by goat anti-human IgG Fc; also called Ovr110-hFc (with TM)
- T1 chain: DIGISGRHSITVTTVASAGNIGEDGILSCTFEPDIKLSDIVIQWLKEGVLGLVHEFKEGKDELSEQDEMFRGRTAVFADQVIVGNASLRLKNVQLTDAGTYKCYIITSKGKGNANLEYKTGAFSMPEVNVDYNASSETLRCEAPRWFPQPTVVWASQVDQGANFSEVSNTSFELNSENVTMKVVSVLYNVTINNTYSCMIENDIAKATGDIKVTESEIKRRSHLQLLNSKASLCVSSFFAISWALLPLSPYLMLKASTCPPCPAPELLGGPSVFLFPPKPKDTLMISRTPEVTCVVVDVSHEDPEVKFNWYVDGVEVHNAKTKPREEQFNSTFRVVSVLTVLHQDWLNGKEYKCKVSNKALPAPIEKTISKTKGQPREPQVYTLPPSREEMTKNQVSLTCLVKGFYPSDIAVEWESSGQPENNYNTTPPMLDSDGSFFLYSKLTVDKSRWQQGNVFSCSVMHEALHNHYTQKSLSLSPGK
- Measurement Description: competition ELISA; row = unlabeled blocking MAb; competitor = biotinylated detecting MAb Q3.1
Readout Type: signal/noise ratio

Binder	Readout Type	Measured Value
Ovr110.Q19 (antibody, IgG1, V domains shown, Mouse hybridoma MAb; also called Q19.6; Ovr110.Q19.6) VH: DVLLQESGPGLVKASQSLSLTCSVTGYSITSGYFWNWIRQFPGNKLEWMGYISYDGGNSYNPSLKNRISITRDTSKNQFFLRMKSVTAEDTATYYCARKALWLRFDYWGQGTTLTVSS VL: EIVLTQSPAIMSVYLGEKVTMTCSASLSVSYMHWYQQKSSTSPKLWIYDTSKVASGVPGRFSGSGSGNSYSLTISSMEAEDVATYYCFQGSGYPFTFGSGTKLEIKR	signal/noise ratio	1.3
Ovr110.Q23 (antibody, IgG1, V domains shown, Mouse hybridoma MAb; also called Q23.6) VH: QVQLQQSGAELMKPGASVKISCKATGYTFSSYWIEWVKQRPGHGLEWIGEILPGSGITKYNEKFKTKATFTADTSSNTAYMQLSSLTSEDSAVYYCARYYFGSVNFYFDCWGQGTTLTVSS VL: QAVVTQESALTTSPGETVTLTCRSSTGAVTTSNYANWVQEKPDHLFTGLIGGTDNRPPGVPARFSGSLIGDKAALTITGTQTEDEAIYFCALWYSNHWVFGGGTKLTVLG	signal/noise ratio	1.4
Ovr110.Q12 (antibody, IgG1, V domains shown, Mouse hybridoma MAb; also called Q12.2; Ovr110.Q12.2) VH: QVQLQQPGAELVKPGATVKLSCKTSGYTFTSYWMHWVKQRPGQGLEWIGEIDPSDSYTNYNQKFKGKATLTVDTSSTTAYMQLSSLTSEDSAVYYCAREYGNNDAMDYWGQGTSVTVSS VL: QIVLTQSPAIMSASPGEKVTMTCSASSGISYMHWYQQKPGTTPKRWIYDASKLASGVPSRFSGSGSGTSYSLTISSMEAEDAATYYCHQRRSYPFTFGSGTKLEIKR	signal/noise ratio	1.4
Ovr110.Q11 (antibody, V domains shown, Mouse hybridoma MAb; also called Q11.12.3; Ovr110.Q11.12.3) VH: DVQLQESGPGLVKPSQSLSLTCSVTGYSITSGYFWSWIRQFPGNKLEWMGFISYDGTNSYNPSLKNRISITRDTSKNQFFLRLNSVTKEDTATYYCARKLLWLRFDYWGQGTTLTVSS VL: ENVLTQSPAIMSASPGEKVTMTCSASSSVSYMHWYQQKSSTSPKLWIYDTSKLASGVPGRFSGSGSGNSYSLTISSMEAEDVATYYCFQGSGYPFTFGSGTKLEIKR	signal/noise ratio	1.3
